Each record here notes measured normalized RNA/DNA level with ligand (log10).
B1: library; a variant is named by its letters at N, in order (parent)
chain: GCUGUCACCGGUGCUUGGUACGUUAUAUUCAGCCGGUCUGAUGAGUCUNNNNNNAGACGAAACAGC

Variants of: B1
Test: normalized RNA/DNA level with ligand (relative to sTRSVctl = 100) (log10 (% of sTRSVctl)); HEK293T overexpressing SLC46A1; ligand concentration (+) RNA-Seq: 6 mM; higher = less ribozyme self-cleavage, higher mRNA level
Conditions: with (6R,S)-folinic acid; ligand present: yes
measuredProperty: normalized RNA/DNA level with ligand (log10)

• UCGCGU = 2.04
• CUAGAA = 2.02
• GUUGUG = 2.01
• CAUCGU = 2.02
• AGCUUA = 2.01
• CUCCGU = 2.06
• AGUUGA = 2.02
• AGAGGG = 2.01
• UACGGU = 1.98
• CGCUUG = 2.04
• UCGGAU = 2.01
• CGAGAU = 1.99
• GCCAAC = 2.05
• GCCAGC = 2.02
• AAUUUA = 1.99
• CUUUGG = 1.99
• AAGAUA = 1.99
• AUAUCA = 2.04
• AUAGAU = 2
• GAUAAG = 2
• UCUUAU = 2
• AUGAAG = 1.99
• GCUUGG = 2.02
• AUCUGA = 2.02
• UUGCCA = 2.04
• ACUGUA = 2.03
• AGAAAG = 2.01
• CGCGAC = 2.04
• CCAAUG = 2.02
• GAUGAA = 1.99
• CUCUAU = 2.03
• AUCGUG = 2.01
• AGGGCG = 2.02
• GCCAUA = 2.02
• AUGACA = 2
• CUACAA = 1.99
• CACCUA = 2.06
• CAAUGU = 1.98
• CCCUUU = 2.06
• CUCGCA = 2.06
• GUUAGA = 2.02
• CUCAUA = 1.96
• ACACAC = 2.01
• GCGGCA = 2.07
• CGGGGU = 2.07
• GGUCAG = 2.04
